Molecular target: 1b (BK) NS5bΔ21 (Hepatitis C virus genotype 1b (isolate BK) (HCV))
Sequence (P26663 2420-2989): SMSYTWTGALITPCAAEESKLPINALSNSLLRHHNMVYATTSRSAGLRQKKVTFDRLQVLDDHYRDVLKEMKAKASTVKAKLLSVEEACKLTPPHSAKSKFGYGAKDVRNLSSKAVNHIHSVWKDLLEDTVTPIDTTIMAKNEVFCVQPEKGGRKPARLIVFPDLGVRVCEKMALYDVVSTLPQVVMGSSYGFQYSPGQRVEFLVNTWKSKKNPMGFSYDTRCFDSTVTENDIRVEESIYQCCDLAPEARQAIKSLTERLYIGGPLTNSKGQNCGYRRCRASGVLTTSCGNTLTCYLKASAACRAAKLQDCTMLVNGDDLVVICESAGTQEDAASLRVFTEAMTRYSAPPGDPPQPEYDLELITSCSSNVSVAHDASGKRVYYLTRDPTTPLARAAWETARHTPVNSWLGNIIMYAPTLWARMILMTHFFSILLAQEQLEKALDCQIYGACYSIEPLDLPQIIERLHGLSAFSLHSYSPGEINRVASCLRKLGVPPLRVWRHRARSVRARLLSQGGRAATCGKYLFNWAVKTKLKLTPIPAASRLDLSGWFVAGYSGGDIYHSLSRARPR
Assay: HCV polymerase inhibition assay, genotype 1b
Type: biochemical, HCV genotype 1b (BK)
Conditions: 1b (BK) NS5bΔ21, 33P-GTP incorporation; read-out: 1b polymerase IC50 (range class)
pIC50: −log10 of the molar value.
outcome measure: pIC50

Worked examples, 2 molecules total:
molecule	pIC50
CNC(=O)c1c2cc(C3CC3)c(N(CCCN3CCCCC3)S(C)(=O)=O)cc2nn1-c1ccc(Oc2ccc(F)cc2)cc1 [Compound 111]	5.00 to 6.00
CCN(c1cc2nn(-c3ccc(NCC(C)C)cc3)c(C(=O)NC)c2cc1C1CC1)S(C)(=O)=O [Compound 117]	> 6.00

Item CCOC(=O)CCCN(CC)c1cc2nn(-c3ccc(Br)cc3)c(C(=O)NC)c2cc1C1CC1 [Compound 225] was tested on 1b (BK) NS5bΔ21 (Hepatitis C virus genotype 1b (isolate BK) (HCV)); the reported pIC50 is 5.00 to 6.00

For the molecule CCCc1cc2c(C(=O)NC)n(-c3ccc(F)cc3)nc2cc1N(CC)S(C)(=O)=O [Compound 145] , the measured pIC50 on 1b (BK) NS5bΔ21 (Hepatitis C virus genotype 1b (isolate BK) (HCV)) was 5.00 to 6.00
